This collection of values is drawn from paper PMC12650828.

# assay.target: nucleolin (NCL) (Homo sapiens, UniProt P19338 1-710)
# Sequence (P19338 whole entry): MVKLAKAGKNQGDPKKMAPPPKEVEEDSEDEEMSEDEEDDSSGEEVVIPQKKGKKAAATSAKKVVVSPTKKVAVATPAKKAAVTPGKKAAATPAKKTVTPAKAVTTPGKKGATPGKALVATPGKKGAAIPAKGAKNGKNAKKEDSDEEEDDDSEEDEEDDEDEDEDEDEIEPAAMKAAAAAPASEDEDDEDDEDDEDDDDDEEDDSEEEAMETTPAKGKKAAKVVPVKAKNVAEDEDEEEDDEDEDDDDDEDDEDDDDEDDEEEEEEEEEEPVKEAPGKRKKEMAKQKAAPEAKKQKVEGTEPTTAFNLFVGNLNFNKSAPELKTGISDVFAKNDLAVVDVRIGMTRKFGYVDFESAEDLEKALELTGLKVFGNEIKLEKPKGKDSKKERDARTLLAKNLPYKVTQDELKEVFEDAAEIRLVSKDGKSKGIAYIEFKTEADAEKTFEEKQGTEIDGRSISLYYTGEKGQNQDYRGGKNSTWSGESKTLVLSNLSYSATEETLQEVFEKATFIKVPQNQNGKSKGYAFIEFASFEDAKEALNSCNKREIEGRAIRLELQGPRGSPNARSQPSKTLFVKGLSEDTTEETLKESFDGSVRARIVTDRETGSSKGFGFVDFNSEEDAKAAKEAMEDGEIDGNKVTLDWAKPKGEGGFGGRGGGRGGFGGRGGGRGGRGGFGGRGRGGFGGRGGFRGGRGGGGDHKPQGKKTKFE
# protocol.notes: MST; MST: 300 nM FAM-aptamer, NCL 1.95 nM-4 uM, binding buffer not specified, 25 C, 15 min; AP1-AP6 and Mut folded in 100 mM KCl, 10 mM K3PO4 pH 7.0; AS1411 in 100 mM NaCl, 10 mM Tris-HCl pH 7.0; cell competition at 4 C, 1 h
# condition.parameters: protein: commercial; label: 5'-FAM (amide bond linker); G4
pKd: −log10 of the molar value.

binder: GUUAGGGUUUGGGAUUG (structured_RNA) [AP1-F]
pKd: 6.32
